Values were extracted from patent US20250176599A1.

- experimentalDetails: Sensory evaluation of aqueous solution VI containing 1,5-octadien-3-ol 10 ppb: off-flavor intensity and masking component intensity
- testSettings: aqueous solution VI; 10 ppm added; average panel score
// boundary case: Off-Flavor Intensity equal to 2 maps to F; strictly smaller maps to T

Data request: Here's an entry: CC(O)CC(=O)OC1CC(C)CCC1C(C)C (centres unmarked) [menthyl 3-hydroxybutyrate] . Is its Off-Flavor Intensity below 2?
Data returned: T

Data request: Does the reported Off-Flavor Intensity of the following compound sit strictly below 2? CC1CCC(C(C)C)C(OCC(O)CO)C1 (centres unmarked)
Data returned: F

Data request: Strictly below 2 in Off-Flavor Intensity? C=CC(C)(O)CCC=C(C)CCC=C(C)C (centres unmarked)
Data returned: T

Data request: Answer whether the compound CC1CCC(C(C)C)C(OCCO)C1 (centres unmarked) has Off-Flavor Intensity strictly less than 2
Data returned: T

Data request: Off-Flavor Intensity under 2? Item: "CC(C)C=C(C=O)c1ccccc1"
Data returned: T
